Na for assorted molecules
species: Rattus norvegicus; experiment: Open TG-GATES - Regimen: Daily Repeat; assay type: toxicity, organism-based, Sprague-Dawley; design: regimen Daily Repeat, gender Male, age 6 weeks; conditions: in vivo, po, 1000 mg/kg, […], tissue Plasma, route gavage, dose level High, time 7 day
# unit: meq/L | format: bare number

{"columns": ["MOLECULE", "EXPERIMENTAL_ENDPOINT", "NUMERIC_READOUT"],
 "data": [
  ["O=C(N[C@H](CO)[C@H](O)c1ccc([N+](=O)[O-])cc1)C(Cl)Cl", "Na", 143.6]
]}

Looking up O=C(O)c1cccnc1 , I see its Na listed as 139

Looking up CC(C)(S)[C@@H](N)C(=O)O , I see its Na listed as 142.4

Looking up CCN1CCCC1CNC(=O)c1cc(S(N)(=O)=O)ccc1OC (centres undefined) [SULPIRIDE] , I see its Na listed as 141

----------
species: Rattus norvegicus; experiment: Open TG-GATES - Regimen: Daily Repeat; type: toxicity, organism-based, Sprague-Dawley; design: regimen Daily Repeat, gender Male, age 6 weeks; settings: in vivo, po, 0 mg/kg, […], tissue Blood, route gavage, dose level Control, time 28 day
Threshold-based label: Fbg under 300 mg/dL gives Satisfied, Fbg not under 300 mg/dL gives Not satisfied.

Consider the following illustrative entries.
{"columns": ["MOLECULE", "CLASSIFICATION"],
 "data": [
  ["CCN1CCCC1CNC(=O)c1cc(S(N)(=O)=O)ccc1OC (stereo unspecified) [SULPIRIDE]", "Satisfied"],
  ["CN1C(=O)OC(C)(C)C1=O", "Satisfied"],
  ["O=C(O)c1cccnc1", "Not satisfied"]
]}

Now let's try a different one.
Take the molecule C[C@]12CCC(=O)C=C1CC[C@@H]1[C@@H]2CC[C@@]2(C)[C@H]1CC[C@]2(C)O and say whether its Fbg is less than 300 mg/dL. Satisfied

----------
RBC for assorted compounds
species on record: Rattus norvegicus; assay: Open TG-GATES - Regimen: Daily Repeat; format: toxicity, organism-based, Sprague-Dawley; set-up: regimen Daily Repeat, gender Male, age 6 weeks; conditions: in vivo, po, 0 mg/kg, […], tissue Blood, route gavage, dose level Control, time 14 day
# unit: x10_4/ul | format: bare number

{"columns": ["COMPOUND", "RBC, x10_4/ul"],
 "data": [
  ["C[C@](N)(Cc1ccc(O)c(O)c1)C(=O)O", 652]
]}

Looking up CCN1CCCC1CNC(=O)c1cc(S(N)(=O)=O)ccc1OC (configuration not stated) [SULPIRIDE] , I see its RBC listed as 731.4

Looking up CN1C(=O)OC(C)(C)C1=O , I see its RBC listed as 719

Looking up CC(=N)S [THIOACETAMIDE] , I see its RBC listed as 722.8

Looking up CCc1oc2ccccc2c1C(=O)c1cc(I)c(O)c(I)c1 , I see its RBC listed as 683.2

Looking up CC(C)(S)[C@@H](N)C(=O)O , I see its RBC listed as 724.8

Looking up Nc1nc(N)c2nc(-c3ccccc3)c(N)nc2n1 , I see its RBC listed as 748

----------
Ht for assorted compounds
species: Rattus norvegicus; assay: Open TG-GATES - Regimen: Single; format: toxicity, organism-based, Sprague-Dawley; parameters: regimen Single, gender Male, age 6 weeks; conditions: in vivo, po, 0 mg/kg, 9 h, tissue Blood, route gavage, dose level Control
# unit: % | format: bare number

Looking up Nc1nc(N)c2nc(-c3ccccc3)c(N)nc2n1 , I see its Ht listed as 41.1

Looking up C[C@](N)(Cc1ccc(O)c(O)c1)C(=O)O [METHYLDOPA] , I see its Ht listed as 37.7

Looking up CC(C)(S)[C@@H](N)C(=O)O [PENICILLAMINE] , I see its Ht listed as 41.9

Looking up CC(=O)Oc1cc(C(C)C)c(OCCN(C)C)cc1C [MOXISYLYTE] , I see its Ht listed as 38.3

Looking up CCSCC[C@H](N)C(=O)O [ETHIONINE] , I see its Ht listed as 38.3

Looking up C#C[C@]1(O)CC[C@H]2[C@@H]3CCc4cc(O)ccc4[C@H]3CC[C@@]21C [ETHINYL ESTRADIOL] , I see its Ht listed as 38
